Hi there, I'd appreciate the recorded Kd for every entry that follows.
# System: free FIXa (activated Factor IX) (UniProt P00740 47-191; P00740 227-461)
# Test: BLI
Please provide the amount together with its unit, number first.

query: Param item = BIIB-9-607 (antibody, V domains shown) VH: QLQLQESGPGLVKPSETLSLTCTVSGGSISSSSYYWGWIRQPPGKGLEWIGSISYSGSTYYNPSLKSRVTISVDTSKNQFSLKLSSVTAADTAVYYCARDRGYSYEDFDLWGRGTLVTVS VL: DIQMTQSPSTLSASVGDRVTITCRASQSISSWLAWYQQKPGKAPKLLIYKASSLESGVPSRFSGSGSGTEFTLTISSLQPDDFATYYCQQAGRYPLTFGGGTKVEIK ; retrieve measured Kd.
result: 6.57 nM

query: Further, for BIIB-9-1282 (antibody, V domains shown) VH: QVQLVQSGAEVKKPGASVKVSCKASGYTFTSYYMVWVRQAPGQGLEWMGIINPSGGSTSYAQKFQGRVTMTRDTSTSTVYMELSSLRSEDTAVYYCARVPTYRYSYLAFDIWGQGTMVTVSS VL: EIVMTQSPATLSVSPGERATLSCRASQSVSSNLAWYQQKPGQAPRLLIYGASTRATGIPARFSGSGSGTEFTLTISSLQSEDFAVYYCQQHNHLPITFGGGTKVEIK ?
result: 43.9 nM

query: Queued: BIIB-9-887 (antibody, V domains shown) VH: QVQLVQSGAEVKKPGASVKVSCKASGYTFTSYYMVWVRQAPGQGLEWMGIINPSGGSTSYAQKFQGRVTMTRDTSTSTVYMELSSLRSEDTAVYYCARDAEAHWIPGMDVWGQGTTVTVSS VL: DIQMTQSPSSVSASVGDRVTITCRASQGISSWLAWYQQKPGKAPKLLIYAASSLQSGVPSRFSGSGSGTDFTLTISSLQPEDFATYYCQQASSFPFTFGGGTKVEIK
result: 6.1 nM

query: Same read-out for BIIB-9-471 (antibody, V domains shown) VH: QVQLQESGPGLVKPSQTLSLTCTVSGGSISSGGYYWSWIRQHPGKGLEWIGYIYYSGSTYYNPSLKSRVTISVDTSKNQFSLKLSSVTAADTAVYYCARSGVSGSGSDNWFDPWGQGTTVTVSS VL: EIVLTQSPATLSLSPGERATLSCRASQSVSRYLAWYQQKPGQAPRLLIYDASNRATGIPARFSGSGSGTDFTLTISSLEPEDFAVYYCQQDYNYPFTFGGGTKVEIK ?
result: 9.11 nM

query: Same again, this time with BIIB-9-626 (antibody, V domains shown) VH: QVQLVQSGAEVKKPGASVKVSCKASGYTFTSYYMHWVRQAPGQGLEWMGVINPSGGSTSYAQKFQGRVTMTRDTSTSTVYMELSSLRSEDTAVYYCARDLQYSMTYFDYWGQGTLVTVSS VL: DIQMTQSPSTLSASVGDRVTITCRASQSISSWLAWYQQKPGKAPKLLIYKASSLESGVPSRFSGSGSGTEFTLTISSLQPDDFATYYCQQDGSYPPLTFGGGTKVEIK
result: 166 nM

Values were extracted from patent US20230192896A1.
